Data origin: patent US20240270821A1

So I've got a bunch of substances here, and I need their pEC50 values.
- experimental target: hGIPR (Homo sapiens)
- Sequence (P48546 22-466): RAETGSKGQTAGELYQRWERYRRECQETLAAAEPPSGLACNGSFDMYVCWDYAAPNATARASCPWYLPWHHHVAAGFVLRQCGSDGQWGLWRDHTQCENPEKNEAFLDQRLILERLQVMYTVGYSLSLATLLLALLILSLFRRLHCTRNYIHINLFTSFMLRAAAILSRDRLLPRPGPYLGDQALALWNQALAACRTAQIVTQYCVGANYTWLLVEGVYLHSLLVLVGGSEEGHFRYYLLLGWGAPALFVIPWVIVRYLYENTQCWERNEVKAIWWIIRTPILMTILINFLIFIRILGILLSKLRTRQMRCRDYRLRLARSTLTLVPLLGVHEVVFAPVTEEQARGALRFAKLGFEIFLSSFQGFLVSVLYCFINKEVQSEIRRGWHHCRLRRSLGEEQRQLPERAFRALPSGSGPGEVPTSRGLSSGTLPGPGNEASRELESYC
- protocol summary: Functional cAMP activity in the presence of 1% HSA
- Type: cell-based
- condition summary: read-out: cAMP Rel EC50, hGIPR
Starred links: 1 amine or outer side, 2 acyl side, 3 side chain; linkers in the order of their positions; H or OH if unused. Non-standard residues stand in square brackets, D forms with d. Groups on a side chain read outwards from the residue. *: point of attachment. C18 diacid = O=C(O)CCCCCCCCCCCCCCCCC(=O)*; αMePhe(2-F) = C[C@](N)(Cc1ccccc1F)C(=O)O; γGlu = O=C(O)[C@H](CCC(=O)[*:2])N[*:1]; αMe4Pal = C[C@](N)(Cc1ccncc1)C(=O)O; 4Pal = N[C@@H](Cc1ccncc1)C(=O)O; αMeL = CC(C)C[C@](C)(N)C(=O)O; Orn = NCCC[C@H](N)C(=O)O; AEEA = NCCOCCOCC(=O)O; Aib = CC(C)(N)C(=O)O
// pEC50 is dimensionless: -log10 of concentration (M)

Given item H-Y[Aib]QGT[αMePhe(2-F)]TSD[4Pal]SI[αMeL]LD[Orn]K([AEEA-γGlu-C18 diacid])AQ[Aib][Orn]FIEYLIEGGPSSGEPPPEEG-NH2 [Example 477] , the value recorded as its pEC50 is 8.84

Form: substance = H-Y[Aib]QGTFTSD[4Pal]SQ[αMeL]LDKK([AEEA-γGlu-C18 diacid])AQ[αMe4Pal]AFIEYLIE[Aib]GPSSGAPPPSSS-NH2 [Example 848] ; pEC50 = 7.69

According to the records, this substance H-Y[Aib]QGTFTSD[4Pal]SQ[αMeL]LDKK([γGlu-γGlu-C18 diacid])AQ[αMe4Pal]AFIE[αMe4Pal]LIE[Aib]GPSSGEPPPSGE-NH2 [Example 1123] displays pEC50 of 8.41

----------
- protocol summary: in vivo
- Parameters: species or system Sprague Dawley rats
- condition summary: male, Sprague Dawley, rat, 4 mg/kg
Starred links: 1 amine or outer side, 2 acyl side, 3 side chain; linkers in the order of their positions; H or OH if unused. Non-standard residues stand in square brackets, D forms with d. Groups on a side chain read outwards from the residue. No end group written: not given here. *: point of attachment. C18 diacid = O=C(O)CCCCCCCCCCCCCCCCC(=O)*; αMePhe(2-F) = C[C@](N)(Cc1ccccc1F)C(=O)O; γGlu = O=C(O)[C@H](CCC(=O)[*:2])N[*:1]; αMe4Pal = C[C@](N)(Cc1ccncc1)C(=O)O; αMeY = C[C@](N)(Cc1ccc(O)cc1)C(=O)O; 4Pal = N[C@@H](Cc1ccncc1)C(=O)O; αMeL = CC(C)C[C@](C)(N)C(=O)O; αMeS = C[C@](N)(CO)C(=O)O; Orn = NCCC[C@H](N)C(=O)O; AEEA = NCCOCCOCC(=O)O; Aib = CC(C)(N)C(=O)O
Could you please report measured CL/F for the items listed next?
Give just the number in mL/min/kg; leave the unit off.

Entry H-Y[Aib]QGT[αMePhe(2-F)]TSD[4Pal][αMeS]I[αMeL]LD[Orn]K([AEEA-γGlu-C18 diacid])AQ[Aib][Orn]FI[dE][αMeY]LIEGGPSSGEPPPEEG-NH2 [Example 462] — recorded CL/F = 10

Input H-Y[Aib]QGT[αMePhe(2-F)]TSD[4Pal]SI[αMeL]LD[Orn]K([AEEA-γGlu-C18 diacid])AQ[αMe4Pal][Orn]FI[dE][αMeY]LIEGGPSSGEPPPEEG-NH2 [Example 475] . Output CL/F: 3.5

Given item Y[Aib]QGT[αMePhe(2-F)]TSD[4Pal][αMeS]I[αMeL]LD[Orn]K([AEEA-γGlu-C18 diacid])AQ[Aib][Orn]FI[dE]YLIEGGPSSGEPPPSEG-NH2 [Example 463] , the value recorded as its CL/F is 16.2

Measured CL/F, H-Y[Aib]QGT[αMePhe(2-F)]TSD[4Pal][αMeS]I[αMeL]LD[Orn]K([AEEA-γGlu-C18 diacid])AQ[Aib][Orn]FI[dE][αMeY]LIEGGPSSGEPPPSEG-NH2 [Example 401] : 16.3

Entry H-Y[Aib]QGT[αMePhe(2-F)]TSD[4Pal][αMeS]I[αMeL]LD[Orn]K([AEEA-AEEA-γGlu-C18 diacid])AQ[Aib][Orn]FI[dE][αMeY]LIEGGPSSGAPEPSEG-NH2 [Example 472] , CL/F reported as 7.33

Y[Aib]QGT[αMePhe(2-F)]TSD[4Pal][αMeS]I[αMeL]LD[Orn]K([AEEA-γGlu-C18 diacid])AQ[Aib][Orn]FI[dE][αMeY]LIEGGPSSGAPEPSEG-NH2 [Example 429] yielded CL/F of 10.7
